Target: NaV1.6 (Homo sapiens (Human), UniProt Q9UQD0)
Test: Sodium Influx Assay (Flux), NaV1.6
Conditions: read-out: Flux NaV1.6 IC50; Trex HEK293 cells, ANG2 dye; arithmetic mean
Where a name gives a salt, the structure may show the parent alone.
Reported values of IC50 for individual entries
measure: IC50

1) O=S(=O)(Nc1ncns1)c1ccc(N[C@@H]2CCN(Cc3ccccc3)C2)c(Cl)c1 [Example 66, 2,2,2-trifluoroacetate]	148 nM
2) CN(c1cc(F)c(S(=O)(=O)Nc2cscn2)cc1C(F)F)[C@H]1CCN(Cc2ccccc2)C1 [Example 270, formate]	4740 nM
3) Cc1cc(S(=O)(=O)Nc2cscn2)c(F)cc1N(C)[C@H]1CCN([C@H]2C[C@@H](c3ccccc3)C2)C1	1110 nM
4) CN(c1cc(F)c(S(=O)(=O)Nc2cscn2)cc1Cl)[C@H]1CCN(Cc2cc(Cl)ccc2Cl)C1	3330 nM
5) O=S(=O)(Nc1ncns1)c1ccc(NC2CCN(Cc3ccccc3)CC2)c(Cl)c1 [Example 46, 2,2,2-trifluoroacetate]	731 nM
6) CN(c1ccc(S(=O)(=O)Nc2nccs2)cc1Cl)C1(C)CCN(Cc2ccccc2)C1 (stereo not shown)	274 nM
7) CC(C)(c1ccccc1)N1CCC(Oc2ccc(S(=O)(=O)Nc3nccs3)cc2Cl)CC1 [Example 59, 2,2,2-trifluoroacetate]	255 nM
8) CCN(c1ccc(S(=O)(=O)Nc2ncns2)cc1Cl)[C@H]1CCN(Cc2ccccc2)C1	615 nM
9) O=S(=O)(Nc1nccs1)c1ccc(OC2CCN(Cc3ccc(C(F)(F)F)cc3)CC2)c(Cl)c1 [Example 23, 2,2,2-trifluoroacetate]	> 30000 nM
10) CN(c1cc(F)c(S(=O)(=O)Nc2cscn2)cc1Br)[C@H]1CCN(Cc2ccccc2)C1 [Example 230, 2,2,2-trifluoroacetate]	967 nM
11) COc1ccccc1CN1CC[C@H](N(C)c2cc(F)c(S(=O)(=O)Nc3cscn3)cc2C)C1 [Example 119, formate]	368 nM
12) Cc1cc(S(=O)(=O)Nc2cscn2)c(F)cc1N(C)[C@@H]1CCN(Cc2ccccc2)C1	3760 nM
13) Cc1c(N(C)[C@H]2CCN(Cc3ccccc3)C2)cc(F)c(S(=O)(=O)Nc2cscn2)c1F [Example 103, 2,2,2-trifluoroacetate]	61 nM
14) C[C@H]1C[C@H](N(C)c2cc(F)c(S(=O)(=O)Nc3cscn3)cc2Cl)CN1Cc1ccccc1 [Example 231, formate]	5520 nM
15) CCN(c1cc(F)c(S(=O)(=O)Nc2cscn2)cc1Cl)[C@H]1CCN(Cc2ccccc2)C1	3100 nM
16) Cc1cc(S(=O)(=O)Nc2ccc(F)cn2)c(F)cc1N(C)[C@H]1CCN(Cc2ccccc2)C1	4560 nM
17) COc1ccccc1CN1CC[C@H](N(C)c2cc(F)c(S(=O)(=O)Nc3cscn3)cc2Cl)C1	532 nM
18) Cc1cc(S(=O)(=O)Nc2cscn2)c(F)cc1N(C)[C@H]1CCN(Cc2ccccn2)C1 [Example 278, 2,2,2-trifluoroacetate]	893 nM
19) Cc1cc(S(=O)(=O)Nc2cscn2)c(F)cc1N(C)[C@H]1CCN(Cc2csc(C3CC3)n2)C1	50 nM

* * *

Reported values of IC50 for individual entries
Target: UniProt Q14524
Assay: Sodium Influx Assay (Flux), NaV1.5
Settings: read-out: Flux NaV1.5 IC50; Trex HEK293 cells, ANG2 dye; arithmetic mean
measure: IC50

1) Cc1cc(S(=O)(=O)Nc2ccon2)c(F)cc1N(C)[C@H]1CCN(Cc2ccccc2)C1 [Example 229, 2,2,2-trifluoroacetate]	> 30 µM
2) O=S(=O)(Nc1nccs1)c1ccc(OC2CCN(Cc3ccncc3)CC2)c(Cl)c1	> 30 µM
3) Cc1c(N(C)[C@H]2CCN(Cc3ccccc3)C2)cc(F)c(S(=O)(=O)Nc2ccsn2)c1F [Example 279, 2,2,2-trifluoroacetate]	> 30 µM

* * *

Molecular target: NaV1.5 (Homo sapiens (Human), UniProt Q14524)
Sequence (Q14524 other isoform, or with tags, fused parts or gaps): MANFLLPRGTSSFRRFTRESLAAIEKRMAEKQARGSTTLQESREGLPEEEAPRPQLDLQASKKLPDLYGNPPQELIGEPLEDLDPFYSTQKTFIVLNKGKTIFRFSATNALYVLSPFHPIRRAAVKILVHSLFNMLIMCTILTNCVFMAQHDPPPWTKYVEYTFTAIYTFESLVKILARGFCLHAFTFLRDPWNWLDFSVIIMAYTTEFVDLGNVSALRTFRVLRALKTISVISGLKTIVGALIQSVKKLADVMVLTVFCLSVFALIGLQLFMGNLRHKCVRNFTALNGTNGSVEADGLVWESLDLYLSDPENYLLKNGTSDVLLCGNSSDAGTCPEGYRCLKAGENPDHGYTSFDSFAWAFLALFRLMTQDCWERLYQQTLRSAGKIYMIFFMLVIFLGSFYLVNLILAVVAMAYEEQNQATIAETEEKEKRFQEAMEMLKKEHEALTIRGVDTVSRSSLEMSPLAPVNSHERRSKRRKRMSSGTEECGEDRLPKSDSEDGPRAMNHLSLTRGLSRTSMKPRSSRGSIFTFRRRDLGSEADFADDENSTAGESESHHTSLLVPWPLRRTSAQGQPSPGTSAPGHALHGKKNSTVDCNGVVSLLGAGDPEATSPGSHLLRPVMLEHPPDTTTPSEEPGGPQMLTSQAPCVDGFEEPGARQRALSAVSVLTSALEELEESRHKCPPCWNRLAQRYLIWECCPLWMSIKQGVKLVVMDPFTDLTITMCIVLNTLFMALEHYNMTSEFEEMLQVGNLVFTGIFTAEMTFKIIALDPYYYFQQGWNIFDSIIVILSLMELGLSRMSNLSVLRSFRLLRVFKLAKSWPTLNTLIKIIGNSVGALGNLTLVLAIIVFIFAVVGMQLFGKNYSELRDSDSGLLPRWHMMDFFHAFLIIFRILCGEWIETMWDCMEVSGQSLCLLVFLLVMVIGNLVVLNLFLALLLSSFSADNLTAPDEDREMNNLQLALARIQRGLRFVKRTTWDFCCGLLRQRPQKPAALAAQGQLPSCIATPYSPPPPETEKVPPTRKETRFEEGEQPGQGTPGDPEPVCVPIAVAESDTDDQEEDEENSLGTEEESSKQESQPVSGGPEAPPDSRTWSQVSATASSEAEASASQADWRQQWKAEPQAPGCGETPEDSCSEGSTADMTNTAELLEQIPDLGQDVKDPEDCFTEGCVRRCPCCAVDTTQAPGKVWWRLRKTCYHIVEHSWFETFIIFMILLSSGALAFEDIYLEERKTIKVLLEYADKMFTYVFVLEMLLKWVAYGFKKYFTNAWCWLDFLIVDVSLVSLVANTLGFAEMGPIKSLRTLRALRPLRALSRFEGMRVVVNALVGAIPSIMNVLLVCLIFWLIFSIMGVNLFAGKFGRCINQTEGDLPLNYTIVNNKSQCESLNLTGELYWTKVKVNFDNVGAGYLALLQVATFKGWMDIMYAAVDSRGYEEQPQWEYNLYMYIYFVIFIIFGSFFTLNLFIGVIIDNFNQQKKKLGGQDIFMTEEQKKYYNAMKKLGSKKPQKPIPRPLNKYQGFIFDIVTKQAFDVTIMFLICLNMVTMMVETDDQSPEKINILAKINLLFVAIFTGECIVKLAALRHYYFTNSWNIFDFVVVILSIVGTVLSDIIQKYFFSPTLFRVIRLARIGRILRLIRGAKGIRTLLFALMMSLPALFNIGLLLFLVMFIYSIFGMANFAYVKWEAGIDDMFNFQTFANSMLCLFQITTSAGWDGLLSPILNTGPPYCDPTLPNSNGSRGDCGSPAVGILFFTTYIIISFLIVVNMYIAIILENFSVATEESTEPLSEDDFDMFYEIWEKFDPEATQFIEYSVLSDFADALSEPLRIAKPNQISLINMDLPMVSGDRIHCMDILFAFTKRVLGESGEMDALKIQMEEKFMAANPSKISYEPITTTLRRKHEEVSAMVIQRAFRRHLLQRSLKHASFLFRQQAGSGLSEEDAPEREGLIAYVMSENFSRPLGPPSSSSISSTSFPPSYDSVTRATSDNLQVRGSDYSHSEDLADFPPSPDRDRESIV
Test: Sodium Influx Assay (Flux), NaV1.5
Conditions: read-out: Flux NaV1.5 IC50; Trex HEK293 cells, ANG2 dye; arithmetic mean
pIC50: −log10 of the molar value. Where a name gives a salt, the structure may show the parent alone.
measure: pIC50

1. CN(c1cc(F)c(S(=O)(=O)Nc2cscn2)cc1Cl)[C@H]1CCN(Cc2cccc(Br)n2)C1	4.80
2. Cc1cccc(CN2CC[C@@H](Nc3cc(F)c(S(=O)(=O)Nc4nccs4)cc3Cl)C2)c1	5.23
3. Cc1c(N(C)[C@H]2CCN(Cc3ccccc3)C2)cc(F)c(S(=O)(=O)Nc2ccc(F)cn2)c1F [Example 302, formate]	4.54
4. CN(c1ccc(S(=O)(=O)Nc2cscn2)c(F)c1Cl)[C@H]1CCN([C@H]2CCc3ccccc32)C1 [Example 247, 2,2,2-trifluoroacetate]	4.86

* * *

Target: NaV1.1 (Homo sapiens (Human), UniProt P35498)
Assay: Sodium Influx Assay (Flux), NaV1.1
Assay type: cell-based
Conditions: Trex HEK293 cells, ANG2 dye; arithmetic mean
Structures can show the parent of a compound that is named as a salt.
measure: IC50 (µM)

1) C[C@H](c1ccccc1)N1CCC(Oc2cc(F)c(S(=O)(=O)Nc3nccs3)cc2Cl)CC1 [Example 56, 2,2,2-trifluoroacetate]	12.5
2) Cc1c(OC2CCN(Cc3ccccc3)CC2)cc(F)c(S(=O)(=O)Nc2cscn2)c1F [Example 106, formate]	23.2
3) C[C@@H]1C[C@@H](Oc2ccc(S(=O)(=O)Nc3nccs3)cc2Cl)CCN1Cc1ccccc1 (relative stereo)	5.85
4) C[C@H](c1cc(Cl)ccc1F)N1CCC(Oc2ccc(S(=O)(=O)Nc3cscn3)cc2Cl)CC1	5.62
5) CN(c1cc(F)c(S(=O)(=O)Nc2cscn2)cc1Cl)[C@H]1CCN(C2(c3ccccc3)CC2)C1 [Example 259, 2,2,2-trifluoroacetate]	3.77

* * *

Reported values of pIC50 for individual entries
Biological target: NaV1.6 (Homo sapiens (Human), UniProt Q9UQD0)
Experiment: Sodium Influx Assay (Flux), NaV1.6
Settings: read-out: Flux NaV1.6 IC50; Trex HEK293 cells, ANG2 dye; arithmetic mean
pIC50: −log10 of the molar value. Structures can show the parent of a compound that is named as a salt.
measure: pIC50

1) C[C@H](c1ccccc1)N1CCC(Oc2ccc(S(=O)(=O)Nc3ncc(F)cn3)cc2Cl)CC1 [Example 304]	5.61
2) CCN(c1cc(F)c(S(=O)(=O)Nc2cscn2)cc1C)[C@H]1CCN(Cc2ccccc2)C1 [Example 312, 2,2,2-trifluoroacetate]	5.56
3) C[C@]1(Nc2ccc(S(=O)(=O)Nc3cscn3)cc2Cl)CCN(Cc2ccccc2)C1 [Example 226, formate]	5.61
4) O=S(=O)(Nc1ncns1)c1ccc(NC2CCN(Cc3ccccc3)C2)c(Cl)c1 (centres unmarked) [Example 26, trifluoroacetate]	6.63
5) CN(c1ccc(S(=O)(=O)Nc2cscn2)c(F)c1Cl)[C@H]1CCN(Cc2ccccc2)C1 [Example 328, 2,2,2-trifluoroacetate]	6.10

* * *

Target: NaV1.5 (Homo sapiens (Human))
Experiment: Sodium Influx Assay (Flux), NaV1.5
Details: read-out: Flux NaV1.5 IC50; Trex HEK293 cells, ANG2 dye; arithmetic mean
Where a name gives a salt, the structure may show the parent alone.
measure: IC50

1) CC1(Nc2ccc(S(=O)(=O)Nc3cscn3)cc2Cl)CN(Cc2ccccc2)C1 [Example 255, 2,2,2-trifluoroacetate]	12.7 µM
2) Cc1c(O[C@H]2CCN(Cc3ccccc3)C2)cc(F)c(S(=O)(=O)Nc2cscn2)c1F [Example 269, hydrochloride]	> 30 µM
3) COc1cccc(CN2CC[C@H](N(C)c3cc(F)c(S(=O)(=O)Nc4cscn4)cc3Cl)C2)n1 [Example 194]	23.5 µM
4) Cc1cccc(CN2CC[C@H](N(C)c3ccc(S(=O)(=O)Nc4ncns4)cc3Cl)C2)c1 [Example 83]	> 30 µM
5) O=S(=O)(Nc1ncns1)c1ccc(O[C@@H]2CCN(Cc3ccccc3)C2)c(Cl)c1 [Example 96, 2,2,2-trifluoroacetate]	> 30 µM
6) CCN(c1ccc(S(=O)(=O)Nc2ncns2)cc1Cl)[C@H]1CCN(Cc2ccccc2)C1 [Example 36]	> 30 µM
7) Cc1ccc(CN2CC[C@H](N(C)c3cc(F)c(S(=O)(=O)Nc4cscn4)cc3Cl)C2)o1 [Example 204]	> 30 µM
8) CN(c1ccc(S(=O)(=O)Nc2ncns2)cc1Cl)[C@H]1CCN(Cc2c(F)cccc2F)C1 [Example 326]	24.5 µM

* * *

Reported values of pIC50 for individual entries
Biological target: NaV1.1 (Homo sapiens (Human), UniProt P35498)
Test: Sodium Influx Assay (Flux), NaV1.1
Assay type: cell-based
Settings: Trex HEK293 cells, ANG2 dye; arithmetic mean
pIC50: −log10 of the molar value.
measure: pIC50

1. Cc1cccc(CN2CC[C@H](N(C)c3cc(F)c(S(=O)(=O)Nc4cscn4)c(F)c3Cl)C2)n1	< 4.52
2. Cc1cc(S(=O)(=O)Nc2cscn2)c(F)cc1N(C)[C@H]1CCN(Cc2ccc(O)cc2)C1	< 4.52
3. Cc1nc(CN2CC[C@H](N(C)c3cc(F)c(S(=O)(=O)Nc4cscn4)cc3C)C2)co1	< 4.52
